method description: Ability of inhibit mammalian uridine phosphorylase
observed property: Ki

Q: Tell me Ki reported for Cc1cn(C2CC(O)C(O)C(CO)O2)c(=O)[nH]c1=O (stereo unspecified)
Result: 12 µM

###

tested target: Adenosine deaminase (Bos taurus, UniProt P56658)
Sequence (P56658 whole entry): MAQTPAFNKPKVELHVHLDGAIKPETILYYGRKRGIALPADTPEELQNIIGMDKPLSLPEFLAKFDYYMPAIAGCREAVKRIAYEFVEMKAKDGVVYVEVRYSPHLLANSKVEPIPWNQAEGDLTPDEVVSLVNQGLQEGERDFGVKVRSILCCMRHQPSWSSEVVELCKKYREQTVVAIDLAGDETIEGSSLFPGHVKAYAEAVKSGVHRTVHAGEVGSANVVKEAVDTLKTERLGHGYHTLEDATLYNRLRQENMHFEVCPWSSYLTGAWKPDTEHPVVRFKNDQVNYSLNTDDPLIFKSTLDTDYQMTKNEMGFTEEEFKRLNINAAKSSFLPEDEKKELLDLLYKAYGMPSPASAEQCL
observed property: Ki
Please format your answer as a value with the unit trailing.

Q: Report Ki on Adenosine deaminase (Bos taurus, UniProt P56658) for this entry: OC[C@H]1O[C@@H](n2cnc3c(O)ncnc32)[C@H](O)[C@@H]1O
Result: 500 µM
